Target: T1, Cynomolgus SLC34A2 (Cynomolgus, UniProt A0A2K5UHY1 1-690)
T1 construct: whole, on cells; also called Cyno SLC34A2
T1 sequence: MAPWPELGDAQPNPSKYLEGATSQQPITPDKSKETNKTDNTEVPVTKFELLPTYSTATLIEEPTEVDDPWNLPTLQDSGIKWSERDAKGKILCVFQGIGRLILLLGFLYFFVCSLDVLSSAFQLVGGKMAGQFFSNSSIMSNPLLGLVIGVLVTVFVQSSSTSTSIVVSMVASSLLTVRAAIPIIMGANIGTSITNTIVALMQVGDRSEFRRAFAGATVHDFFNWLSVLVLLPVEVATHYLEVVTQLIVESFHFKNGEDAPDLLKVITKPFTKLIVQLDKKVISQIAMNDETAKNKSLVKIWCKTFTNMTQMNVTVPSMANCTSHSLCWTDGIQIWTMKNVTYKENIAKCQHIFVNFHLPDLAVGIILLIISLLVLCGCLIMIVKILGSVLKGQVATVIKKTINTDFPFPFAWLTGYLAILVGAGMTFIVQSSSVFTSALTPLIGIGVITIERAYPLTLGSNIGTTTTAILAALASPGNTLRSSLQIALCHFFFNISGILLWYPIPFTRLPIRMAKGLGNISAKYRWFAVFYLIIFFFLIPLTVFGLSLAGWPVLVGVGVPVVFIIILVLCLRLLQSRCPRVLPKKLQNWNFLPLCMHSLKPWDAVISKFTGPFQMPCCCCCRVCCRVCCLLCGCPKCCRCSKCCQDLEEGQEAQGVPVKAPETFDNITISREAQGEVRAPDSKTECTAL
Test: FACS, cells expressing Cynomolgus SLC34A2
Listed binders paired with reported Top (MFI)
Form entry: value (MFI) — number only.

Examples from the recorded data:
| binder | readout-value |
| --- | --- |
| xi94E9B12 hIgG1 (antibody, V domains shown, chimeric, hIgG1) VH: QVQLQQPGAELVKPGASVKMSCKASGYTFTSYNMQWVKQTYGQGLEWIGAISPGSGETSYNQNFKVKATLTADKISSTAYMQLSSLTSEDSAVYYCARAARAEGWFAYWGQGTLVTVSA VL: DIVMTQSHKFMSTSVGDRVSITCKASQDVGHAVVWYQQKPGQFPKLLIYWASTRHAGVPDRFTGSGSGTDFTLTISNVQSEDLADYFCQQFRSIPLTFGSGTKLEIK | 3580 |
| xi91C9F1 hIgG1 (antibody, V domains shown, chimeric, hIgG1) VH: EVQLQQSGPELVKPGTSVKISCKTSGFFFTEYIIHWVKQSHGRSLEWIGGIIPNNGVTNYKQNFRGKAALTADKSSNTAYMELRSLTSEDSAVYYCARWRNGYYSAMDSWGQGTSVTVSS VL: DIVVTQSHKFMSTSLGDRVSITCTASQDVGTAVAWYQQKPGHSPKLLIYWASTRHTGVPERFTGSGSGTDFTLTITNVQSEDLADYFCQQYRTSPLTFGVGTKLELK | 2430 |

Pending binder:
Incoming: Can you share its Top (MFI)? I mean this binder: xi84F2D10 hIgG1 (antibody, V domains shown, chimeric, hIgG1) VH: QVQLQQPGAVLVKPGASVKMSCKASGYTFTSYNLHWVKQTPGQGLEWIGAIYPGNGDTSYIQKFKGKATLTADKSSSTAYMQLSSLTSEDSAVYYCARGKYGNYEGFAYWGQGTLVTVSA VL: DILLTQSPAILSVSPGERVSISCRASQSIGTSIYWYQQRRNGSPRLLIKFASESISGIPSRFSGSGSGTDFTLSINSVESEDIADYYCQQNNRWPFTFGSGTKLEIK
Outgoing: 1280
